As shown below, each of these compounds has a reported pIC50 value.
# targetEntity: Cathepsin S (UniProt P25774)
# testMethodNotes: Cathepsin enzyme inhibition assay (fluorogenic peptide substrate Z-Val-Val-Arg-AMC), Cathepsin S
# Type: biochemical, human and mouse
# conditionSummary: enzyme 1 nM, substrate 20 μM, pH 6.5; read-out: CatS IC50
By convention, pIC50 is the negative base-10 log of a molar concentration.

# input compound: CC(C)(C)OC(=O)N1C[C@H](S(=O)(=O)c2ccc(N3CCC(F)(F)CC3)cc2Cl)C[C@H]1C(=O)NC1(C#N)CC1 ; wanted: its pIC50
8.66

For CC(C)(C)OC(=O)N1C[C@H](S(=O)(=O)c2ccc(N3CCC(F)(F)C3)cc2Cl)C[C@H]1C(=O)NC1(C#N)CC1 , what is its reported pIC50?
8.62

Record request: pIC50 value, item N#CC1(NC(=O)[C@@H]2C[C@@H](S(=O)(=O)c3ccccc3Cl)CN2CC(F)(F)C(F)(F)F)CC1
7.39

Could you share which pIC50 value was measured for N#CC1(NC(=O)[C@@H]2C[C@@H](S(=O)(=O)c3ccccc3Cl)CN2C(=O)[C@H](O)c2ccc(Cl)cc2)CC1 ?
9.28

Look up pIC50: N#CC1(NC(=O)[C@@H]2C[C@@H](S(=O)(=O)c3ccccc3Cl)CN2C(=O)C(F)(F)c2ccc(Cl)cc2)CC1
9.21

Sample N#CC1(NC(=O)[C@@H]2C[C@@H](S(=O)(=O)c3ccc(OCC(F)(F)F)cc3Cl)CN2C(=O)C2CC2c2ccccc2)CC1 (stereo partly drawn) [Example 247] — what was its pIC50?
9.41
